Source: patent US6737438B2

Recorded % Suppression on Day 4 values for a group of compounds are listed next.
Test system: multidrug resistant strain of Plasmodium yoelii Nigeriensis
test.method.notes: Antimalarial activity against multidrug resistant P. yoelii in swiss mice
Assay type: in vivo
setup.conditions: i.m., 96 mg/kg, 4 consecutive days (day 0-3), parasitaemia vs vehicle control
endpoint: % Suppression on Day 4 (%)

C(=CC1COC2(CCCCCC2)OO1)c1ccc(C2CCCC2)cc1 (stereo not shown) [Trioxane 7ad]: 48
C=C(c1ccc(-c2ccccc2)cc1)C1COC2(CCC(C(C)(C)CC)CC2)OO1 (stereo not shown) [Trioxane 7eg]: 87.6
C=C(c1ccc(-c2ccc(Br)cc2)cc1)C1COC2(OO1)C1CC3CC(C1)CC2C3 (stereo not shown) [Trioxane 9f]: 92.4
C=C(c1ccc(C2CCCCCC2)cc1)C1COC2(CCC(C(C)(C)CC)CC2)OO1 (stereo not shown) [Trioxane 7cb]: 86.31
